# SYSTEM_TESTED: human SLC6A19 and TMEM27 (Homo sapiens)
# Construct: expressed in transfected cells
# ASSAY_METHOD_TEXT: 13C6,15N-isoleucine uptake in CHO cells with doxycycline-inducible expression of human SLC6A19 and TMEM27, RapidFire mass spectrometry (Example B-2)
# Assay type: cell-based
# STUDY_CONDITIONS: read-out: SLC6A19_RapidFire Uptake Assay IC50
pIC50: −log10 of the molar value.
READOUT: pIC50

{"COMPOUND": "Cc1cc2cc(CNC(=O)C3(C)CC3)[nH]c2cc1OCc1ccon1 [Compound 10]", "READOUT": "pIC50", "TEST_RESULT": 6.89}
{"COMPOUND": "CC1(C(=O)NCc2cc3cc(Cl)c(OCc4cccnc4F)cc3[nH]2)CC1 [Compound 30]", "READOUT": "pIC50", "TEST_RESULT": 6.81}
{"COMPOUND": "CC1(C(=O)NCc2cc3ccc(OCCc4cscn4)cc3[nH]2)CC1 [Compound 191]", "READOUT": "pIC50", "TEST_RESULT": 5.91}
{"COMPOUND": "CC1(C(=O)NCc2cc3cc(Cl)c(NCc4ccon4)cc3[nH]2)CC1 [Compound 151]", "READOUT": "pIC50", "TEST_RESULT": 6.76}
{"COMPOUND": "Cc1cc(COc2cc3[nH]c(CNC(=O)N4CCC4)cc3cc2Cl)on1 [Compound 404]", "READOUT": "pIC50", "TEST_RESULT": 6.83}
{"COMPOUND": "CC1(C(=O)NCc2cc3cc(Cl)c(OCc4cncc(F)c4)cc3[nH]2)CC1 [Compound 36]", "READOUT": "pIC50", "TEST_RESULT": 6.50}
{"COMPOUND": "Cc1cc(CCOc2cc3[nH]c(CNC(=O)C4(C)CC4)cc3cc2Cl)no1 [Compound 99]", "READOUT": "pIC50", "TEST_RESULT": 7.09}
{"COMPOUND": "Cc1cc(COc2cc3[nH]c(CNC(=O)N4CCC4)cc3cc2F)on1 [Compound 481]", "READOUT": "pIC50", "TEST_RESULT": 6.53}
{"COMPOUND": "CC1(C(=O)NCc2cc3cc(Cl)c(CNc4ccon4)cc3[nH]2)CC1 [Compound 608]", "READOUT": "pIC50", "TEST_RESULT": 6.34}
{"COMPOUND": "CC(=O)NCc1cc2cc(F)c(OCc3cc(C)no3)cc2[nH]1 [Compound 223]", "READOUT": "pIC50", "TEST_RESULT": 6.10}
{"COMPOUND": "Cc1nc(COc2cc3[nH]c(CNC(=O)C4(C)CC4)cc3cc2Cl)co1 [Compound 182]", "READOUT": "pIC50", "TEST_RESULT": 7.04}
{"COMPOUND": "CC1(C(=O)NCc2cc3cc(Cl)c(OCc4ccc(F)nc4)cc3[nH]2)CC1 [Compound 31]", "READOUT": "pIC50", "TEST_RESULT": 6.30}
{"COMPOUND": "CCC(=O)NCc1cc2cc(C)c(OCc3ccon3)cc2[nH]1 [Compound 530]", "READOUT": "pIC50", "TEST_RESULT": 6.68}
{"COMPOUND": "Cc1nc(COc2ccc3cc(CNC(=O)C4(C)CC4)[nH]c3c2)co1 [Compound 180]", "READOUT": "pIC50", "TEST_RESULT": 6.25}
{"COMPOUND": "CC1(C(=O)NCc2cc3ccc(OCc4cncnc4)cc3[nH]2)CC1 [Compound 52]", "READOUT": "pIC50", "TEST_RESULT": 5.68}
{"COMPOUND": "CC1(C(=O)NCc2cc3cc(Cl)c(OCc4nccs4)cc3[nH]2)CC1 [Compound 40]", "READOUT": "pIC50", "TEST_RESULT": 7.19}
{"COMPOUND": "CC1(C(=O)NCc2cc3ccc(OCc4ccc(Cl)cc4)cc3[nH]2)CC1 [Compound 44]", "READOUT": "pIC50", "TEST_RESULT": 6.08}
{"COMPOUND": "Cc1cc(Oc2ccc3cc(CNC(=O)C4(C)CC4)[nH]c3c2)no1 [Compound 78]", "READOUT": "pIC50", "TEST_RESULT": 5.29}

----------
Each entry below lists one item and its recorded IC50 value.
# SYSTEM_TESTED: human SLC6A19 and TMEM27 (Homo sapiens)
# Construct: expressed in transfected cells
# Sequence (Q695T7 1-634): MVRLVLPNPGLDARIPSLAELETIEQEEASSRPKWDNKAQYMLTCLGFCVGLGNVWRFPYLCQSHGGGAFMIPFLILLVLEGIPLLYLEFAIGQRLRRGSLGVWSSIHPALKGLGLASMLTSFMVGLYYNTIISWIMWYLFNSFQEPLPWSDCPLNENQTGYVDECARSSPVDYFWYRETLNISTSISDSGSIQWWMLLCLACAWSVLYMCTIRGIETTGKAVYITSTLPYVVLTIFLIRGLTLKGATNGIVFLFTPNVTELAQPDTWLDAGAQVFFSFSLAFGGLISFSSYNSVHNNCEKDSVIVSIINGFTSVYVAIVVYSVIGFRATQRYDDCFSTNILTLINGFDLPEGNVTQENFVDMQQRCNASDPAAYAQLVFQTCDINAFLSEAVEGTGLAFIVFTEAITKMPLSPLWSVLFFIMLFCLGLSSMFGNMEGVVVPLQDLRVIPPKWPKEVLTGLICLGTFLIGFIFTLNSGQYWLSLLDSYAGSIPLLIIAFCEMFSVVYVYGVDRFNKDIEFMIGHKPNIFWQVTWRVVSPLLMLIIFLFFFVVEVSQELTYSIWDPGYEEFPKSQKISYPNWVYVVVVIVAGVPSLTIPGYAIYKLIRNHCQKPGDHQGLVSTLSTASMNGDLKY
# Sequence (Q9HBJ8 15-222 partner): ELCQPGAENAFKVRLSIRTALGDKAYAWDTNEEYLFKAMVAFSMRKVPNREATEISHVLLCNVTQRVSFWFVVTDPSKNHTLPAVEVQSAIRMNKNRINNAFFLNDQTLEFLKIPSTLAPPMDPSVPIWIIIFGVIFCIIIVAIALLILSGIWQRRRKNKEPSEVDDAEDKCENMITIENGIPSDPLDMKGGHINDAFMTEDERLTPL
# ASSAY_METHOD_TEXT: Radiolabelled (3H) leucine uptake in CHO cells with doxycycline-inducible expression of human SLC6A19 and TMEM27 (Example B-1)
# Assay type: cell-based
# STUDY_CONDITIONS: CHO cells with doxycycline-inducible expression of human SLC6A19 and TMEM27, read-out: SLC6A19_Radioligand Uptake Assay IC50
READOUT: IC50

{"COMPOUND": "O=C(NCc1cc2cc(F)c(OCc3ccon3)cc2[nH]1)C1(C(F)(F)F)CC1 [Compound 139]", "TEST_RESULT": "310 nM"}
{"COMPOUND": "CC1(C(=O)NCc2cc3cc(Cl)c(OCc4cc(C5CC5)on4)cc3[nH]2)CC1 [Compound 100]", "TEST_RESULT": "201 nM"}
{"COMPOUND": "CC1(C(=O)NCc2cc3cc(F)c(OCc4ccc5ccoc5c4)cc3[nH]2)CC1 [Compound 460]", "TEST_RESULT": "1360 nM"}
{"COMPOUND": "Cc1cc(COc2cc3[nH]c(CNC(=O)C(C)C4COC4)cc3cc2Cl)on1 (racemic) [Compound 545]", "TEST_RESULT": "3540 nM"}

----------
# SYSTEM_TESTED: human SLC6A19 and TMEM27 (Homo sapiens)
# Construct: expressed in transfected cells
# ASSAY_METHOD_TEXT: Radiolabelled (3H) leucine uptake in CHO cells with doxycycline-inducible expression of human SLC6A19 and TMEM27 (Example B-1)
# Assay type: cell-based
# STUDY_CONDITIONS: CHO cells with doxycycline-inducible expression of human SLC6A19 and TMEM27, read-out: SLC6A19_Radioligand Uptake Assay IC50

{"COMPOUND": "Cc1cc(COc2cc3[nH]c(CNC(=O)C4COC4)cc3cc2Cl)on1", "IC50 [µM]": 0.175}
{"COMPOUND": "CC(C)c1cc2cc(CNC(=O)C3(C)CC3)[nH]c2cc1OCc1cscn1", "IC50 [µM]": 0.968}
{"COMPOUND": "CC(=O)NCc1cc2ccc(OCc3cc(C)no3)cc2[nH]1", "IC50 [µM]": 2.93}
{"COMPOUND": "O=C(NCc1cc2cc(F)c(OCc3cocn3)cc2[nH]1)C1CC1", "IC50 [µM]": 0.161}
{"COMPOUND": "Cc1cc(COc2cc(F)c3cc(CNC(=O)N4CCC4)[nH]c3c2)on1", "IC50 [µM]": 0.634}
{"COMPOUND": "CC1CN(C(=O)NCc2cc3cc(Cl)c(OCc4ccon4)cc3[nH]2)C1", "IC50 [µM]": 0.34}
{"COMPOUND": "O=C(NCc1cc2cc(Cl)c(OCc3cscn3)cc2[nH]1)[C@@H]1C[C@H]1F", "IC50 [µM]": 0.145}
{"COMPOUND": "Cc1cc(COc2cc3[nH]c(CNC(=O)[C@H]4CCCN4)cc3cc2Cl)on1", "IC50 [µM]": 7.51}
{"COMPOUND": "Cc1cc(COc2cc3[nH]c(CNC(=O)[C@@H]4CCC[C@@H]4O)cc3cc2Cl)on1 (racemic)", "IC50 [µM]": 1.39}
{"COMPOUND": "CC(=O)NCc1cc2cc(C)c(OCc3cscn3)cc2[nH]1", "IC50 [µM]": 0.36}
{"COMPOUND": "Cc1cc(COc2cc3[nH]c(CNC(=O)NC4CC4)cc3cc2Cl)on1", "IC50 [µM]": 0.164}
{"COMPOUND": "Cc1cc(COc2cc3[nH]c(CNC(=O)C4(CO)CC4)cc3cc2Cl)on1", "IC50 [µM]": 0.383}
{"COMPOUND": "CC(=O)NCc1cc2cc(C)c(OCc3ccon3)cc2[nH]1", "IC50 [µM]": 0.283}
{"COMPOUND": "CC(=O)NCc1cc2cc(F)c(OCc3cc(C)on3)cc2[nH]1", "IC50 [µM]": 0.787}
{"COMPOUND": "CC(C)(C)C(=O)NCc1cc2cc(Cl)c(OCc3ccon3)cc2[nH]1", "IC50 [µM]": 1.44}
{"COMPOUND": "O=C(NCc1cc2cc(Cl)c(CCc3ccon3)cc2[nH]1)N1CCCC1", "IC50 [µM]": 0.289}
{"COMPOUND": "CC[C@@H](O)C(=O)NCc1cc2cc(Cl)c(OCc3cc(C)no3)cc2[nH]1", "IC50 [µM]": 1.02}
{"COMPOUND": "CC(=O)NCc1cc2cc(F)c(OCc3cc(C)no3)cc2[nH]1", "IC50 [µM]": 0.203}
